self-splicing fitness (ln) values for the sequences below.
Experiment: self-splicing fitness, log relative to wild type (ln ratio); higher = more splicing; Tetrahymena group I intron in knt gene, E. coli kanamycin selection, DiMSum; sequences stand for … in CUCUCU…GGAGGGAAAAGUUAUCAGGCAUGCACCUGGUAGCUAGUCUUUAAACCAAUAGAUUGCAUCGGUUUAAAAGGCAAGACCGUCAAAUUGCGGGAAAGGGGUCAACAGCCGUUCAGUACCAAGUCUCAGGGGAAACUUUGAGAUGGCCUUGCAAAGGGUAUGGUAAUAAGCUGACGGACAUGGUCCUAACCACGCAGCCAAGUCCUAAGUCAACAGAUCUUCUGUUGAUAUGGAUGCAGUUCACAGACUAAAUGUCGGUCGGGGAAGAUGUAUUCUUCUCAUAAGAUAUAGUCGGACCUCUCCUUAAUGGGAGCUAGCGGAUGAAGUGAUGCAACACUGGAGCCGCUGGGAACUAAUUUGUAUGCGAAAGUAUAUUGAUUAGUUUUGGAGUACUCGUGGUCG;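 further: selection with 25 µg/mL kanamycin versus none on LB agar overnight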
Conditions: 30 °C
// print number alone

Consider the reported self-splicing fitness (ln) for these sequences:
{"columns": ["entry-sequence", "self-splicing fitness (ln)"],
 "data": [
  ["CAGCAGCAAUAUUACGGCAG", -0.983],
  ["GUCUAGCAAUAUUACGCUCU", -0.178],
  ["UUCCAGCAAUAUUACGGCAC", -2.78],
  ["AAAAAGCAAUAUUACGAACC", -1.53],
  ["GGAGAGCAAUAUUACGGCGU", -1.58],
  ["UCAAAGCAAUAUUACGAGUG", -0.846],
  ["AGUUAGCAAUAUUACGGGUG", -3.86],
  ["GUUCAGCAAUAUUACGCAAA", -0.717],
  ["AUAUAGCAAUAUUACGAACU", -1.38],
  ["UCCUAGCAAUAUUACGCAAU", -2.64]
]}

Lookup: Give its self-splicing fitness (ln) value. Item: UUCUAGCAAUAUUACGAUUU
Found: -1.54

Lookup: Entry AGGCAGCAAUAUUACGGAAU has what self-splicing fitness (ln)?
Found: -1.67

Lookup: Suppose we examine the sequence CUGCAGCAAUAUUACGGUAA ; what self-splicing fitness (ln) value has been reported?
Found: -2.7
